Measured values drawn from PubChem BioAssay for this set.

Quick reference: inhibition of the listed items.
tested.system: Integrin beta-1 (Homo sapiens) + Integrin alpha-4 (Homo sapiens) (UniProt P13612+P05556)
Sequence (P05556 whole entry, looked up): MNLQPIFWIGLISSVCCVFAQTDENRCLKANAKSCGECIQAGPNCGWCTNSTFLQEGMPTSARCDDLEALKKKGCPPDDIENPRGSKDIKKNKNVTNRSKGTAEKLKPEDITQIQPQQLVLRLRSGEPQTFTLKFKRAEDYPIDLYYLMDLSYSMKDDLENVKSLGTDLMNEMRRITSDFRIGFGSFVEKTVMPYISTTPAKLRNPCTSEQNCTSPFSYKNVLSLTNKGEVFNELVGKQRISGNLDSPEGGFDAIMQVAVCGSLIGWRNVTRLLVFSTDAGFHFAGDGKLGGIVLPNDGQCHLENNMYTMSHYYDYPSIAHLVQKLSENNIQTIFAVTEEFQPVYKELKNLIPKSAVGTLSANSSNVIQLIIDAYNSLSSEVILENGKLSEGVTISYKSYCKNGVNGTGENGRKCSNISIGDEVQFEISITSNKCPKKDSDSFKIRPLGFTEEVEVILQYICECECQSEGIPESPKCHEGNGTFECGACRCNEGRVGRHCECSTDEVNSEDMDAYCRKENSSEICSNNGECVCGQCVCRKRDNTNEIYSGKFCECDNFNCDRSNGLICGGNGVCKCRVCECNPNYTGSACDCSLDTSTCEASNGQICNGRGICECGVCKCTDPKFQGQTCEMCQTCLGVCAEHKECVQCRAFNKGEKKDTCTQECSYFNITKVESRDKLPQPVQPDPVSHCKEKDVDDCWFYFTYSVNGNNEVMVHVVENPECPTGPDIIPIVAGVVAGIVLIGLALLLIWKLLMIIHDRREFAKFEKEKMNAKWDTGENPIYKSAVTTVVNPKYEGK
Sequence (P13612 whole entry, looked up): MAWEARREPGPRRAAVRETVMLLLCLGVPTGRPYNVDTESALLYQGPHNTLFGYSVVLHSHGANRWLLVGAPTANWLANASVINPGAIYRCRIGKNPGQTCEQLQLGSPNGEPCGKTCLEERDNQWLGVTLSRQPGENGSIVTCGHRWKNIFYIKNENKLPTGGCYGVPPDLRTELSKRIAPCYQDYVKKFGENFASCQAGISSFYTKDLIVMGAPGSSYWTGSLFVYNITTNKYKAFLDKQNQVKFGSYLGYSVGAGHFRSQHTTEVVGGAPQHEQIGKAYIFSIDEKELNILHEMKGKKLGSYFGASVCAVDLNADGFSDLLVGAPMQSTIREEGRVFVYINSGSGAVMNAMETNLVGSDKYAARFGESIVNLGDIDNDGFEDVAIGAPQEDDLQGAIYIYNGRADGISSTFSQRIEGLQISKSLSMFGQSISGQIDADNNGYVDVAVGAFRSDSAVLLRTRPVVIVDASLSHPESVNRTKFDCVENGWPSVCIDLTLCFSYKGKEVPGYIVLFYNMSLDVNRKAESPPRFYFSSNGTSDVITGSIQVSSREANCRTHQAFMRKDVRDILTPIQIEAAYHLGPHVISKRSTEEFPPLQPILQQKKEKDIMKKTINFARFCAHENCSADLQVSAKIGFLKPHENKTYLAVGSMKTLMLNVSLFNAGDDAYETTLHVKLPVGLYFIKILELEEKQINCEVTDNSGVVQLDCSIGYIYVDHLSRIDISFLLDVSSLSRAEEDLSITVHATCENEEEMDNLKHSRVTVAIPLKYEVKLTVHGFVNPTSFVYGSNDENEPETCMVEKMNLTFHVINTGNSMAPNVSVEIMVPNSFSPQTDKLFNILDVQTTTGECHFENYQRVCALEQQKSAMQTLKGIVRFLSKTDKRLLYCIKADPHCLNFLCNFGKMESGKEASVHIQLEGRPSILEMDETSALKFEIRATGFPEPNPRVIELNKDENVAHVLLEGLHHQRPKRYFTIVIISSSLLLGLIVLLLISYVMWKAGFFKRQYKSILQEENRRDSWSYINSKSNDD
procedure.details: inhibition of HUTS-21 binding to VLA-4, pilot screen, VLA-4 allosteric modulator project, U937 cells, HUTS-21 mAb, flow cytometry, validation set (AID 2674);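 further: antibody binding induced by the VLA-4 ligand LDV present at three times its Kd; 0% = LDV ligand with antibody and no compound and 100% = antibody without LDV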
cond: HUTS-21 LIBS mAb binding, at 6.7 µM, active compounds read high, binding induced by LDV ligand
property.label: inhibition (%)

[[record]]
compound = "CCOc1cccc(N2C(=O)CC(N(CCc3ccc(OC)c(OC)c3)C(=O)CC)C2=O)c1 (stereo unspecified)"
measurement = 0

[[record]]
compound = "O=C(c1cc2cc(Br)ccc2o1)N1CCCCC1"
measurement = 10.5

[[record]]
compound = "COCCOC(=O)c1c(C)oc2ccc(OCc3cc(C(=O)OC)oc3C)cc12"
measurement = 10.9

[[record]]
compound = "O=C(NCCN1CCOCC1)c1ccc(Cl)cc1"
measurement = -16

[[record]]
compound = "CCc1cc2c3c(c(=O)oc2cc1O)CCCC3"
measurement = -18.2

[[record]]
compound = "CC1COc2c(N3CCN(C)CC3)c(F)cc3c(=O)c(C(=O)O)cn1c23 (stereo unspecified)"
measurement = 11.3

[[record]]
compound = "CC(C)C1Cc2[nH]c(=O)c(C(=O)O)cc2CO1 (stereo unspecified)"
measurement = 25.5

[[record]]
compound = "COc1ccc([C@@H]2Sc3ccccc3N(CCN(C)C)C(=O)[C@@H]2OC(C)=O)cc1"
measurement = -0.24

[[record]]
compound = "COc1ccc2c(c1)CC[C@@H]1[C@@H]2CC[C@]2(C)C(=O)CC[C@@H]12"
measurement = -7.79

[[record]]
compound = "Oc1ccc(/C=C/c2cc(O)cc(O)c2)cc1"
measurement = -6.77

[[record]]
compound = "COc1ccc2nc(NC(=O)Nc3ccccc3)sc2c1"
measurement = 10


----------
procedure.details: RPL19A-GFP modulators, yeast TOR pathway, confirmation, cell-based, S. cerevisiae, flow cytometry, cherry picks, mother/daughter gates (AID 2270)
cond: S. cerevisiae RPL19A-GFP strain, 3 h, at 10 µM, active compounds read low, 100 = same GFP as DMSO wells
Quick reference: GFP response vs DMSO of the listed items.
property.label: GFP response vs DMSO (%)

[[record]]
compound = "O=C1c2ccsc2SCCN1Cc1ccccc1Cl"
property_label = "GFP response vs DMSO"
unit = "%"
measurement = 94.2

[[record]]
compound = "COc1ccc(C(=O)c2no[n+]([O-])c2C(=O)c2ccc(OC)cc2)cc1"
property_label = "GFP response vs DMSO"
unit = "%"
measurement = 90.1

[[record]]
compound = "CC1=C(C)/C(=N\\OS(=O)(=O)c2ccccc2)C=CC1=O"
property_label = "GFP response vs DMSO"
unit = "%"
measurement = 99.1

[[record]]
compound = "CCc1noc(C)c1C(=O)Nc1nc(-c2ccc(Cl)cc2Cl)cs1"
property_label = "GFP response vs DMSO"
unit = "%"
measurement = 95.6

[[record]]
compound = "Cc1[nH][nH]c(=O)c1C(c1ccc(-c2ccc(Cl)cc2)o1)c1c(C)[nH][nH]c1=O"
property_label = "GFP response vs DMSO"
unit = "%"
measurement = 101

[[record]]
compound = "COCc1nnc(NC(=O)c2ccc(S(=O)(=O)N3CCCCCC3)cc2)o1"
property_label = "GFP response vs DMSO"
unit = "%"
measurement = 105

[[record]]
compound = "CCCc1[nH]nc2c1C(c1cccc(OC)c1)C(C#N)=C(N)O2 (stereo not drawn)"
property_label = "GFP response vs DMSO"
unit = "%"
measurement = 103

[[record]]
compound = "Cc1ccccc1C(=O)Nc1cccc(C#N)c1"
property_label = "GFP response vs DMSO"
unit = "%"
measurement = 95.6

[[record]]
compound = "CCOC(=O)C(=CNNc1ccccc1)C(=O)OCC"
property_label = "GFP response vs DMSO"
unit = "%"
measurement = 106

[[record]]
compound = "Cc1ccc(C(=O)O/N=C(\\N)Cc2cccs2)c(Cl)c1"
property_label = "GFP response vs DMSO"
unit = "%"
measurement = 104

[[record]]
compound = "O=C(COc1ccc(F)cc1Cl)Nc1nc(-c2ccccn2)cs1"
property_label = "GFP response vs DMSO"
unit = "%"
measurement = 98

[[record]]
compound = "O=C(Nc1nc(-c2ccccc2)cs1)c1cccnc1"
property_label = "GFP response vs DMSO"
unit = "%"
measurement = 101

[[record]]
compound = "CCOC(=O)c1c(C)[nH]c(C)c1C(=O)COC(=O)c1cc2ccccc2cc1O"
property_label = "GFP response vs DMSO"
unit = "%"
measurement = 96.2

[[record]]
compound = "O=C(N/N=C/c1ccc(F)cc1)c1ccc(Br)cc1"
property_label = "GFP response vs DMSO"
unit = "%"
measurement = 99.6

[[record]]
compound = "Cc1noc2ncnc(Sc3c(Cl)cccc3Cl)c12"
property_label = "GFP response vs DMSO"
unit = "%"
measurement = 101

[[record]]
compound = "Cc1ccc(S(=O)(=O)NCC23C=CC(O2)C2C(=O)N(c4ccccc4)C(=O)C23)cc1 (stereo not drawn)"
property_label = "GFP response vs DMSO"
unit = "%"
measurement = 98.4

[[record]]
compound = "Cc1ccccc1N1C(=O)c2sc3nc4c(c(=O)n3c2C1=O)CCC4"
property_label = "GFP response vs DMSO"
unit = "%"
measurement = 96.2

[[record]]
compound = "O=C(O)c1ccccc1C(=O)N1CCN(c2cccc(Cl)c2)CC1"
property_label = "GFP response vs DMSO"
unit = "%"
measurement = 97.2

[[record]]
compound = "Cc1nn(C)cc1C(C)NC(=O)c1cc(COc2ccc(F)c(F)c2)on1 (stereo not drawn)"
property_label = "GFP response vs DMSO"
unit = "%"
measurement = 101

[[record]]
compound = "Cc1ccc(S(=O)(=O)CC#CCOC(=O)c2ccc([N+](=O)[O-])cc2)cc1"
property_label = "GFP response vs DMSO"
unit = "%"
measurement = 105

[[record]]
compound = "CSc1ccc(/C=C/C(=O)c2c(O)cc(C)oc2=O)cc1"
property_label = "GFP response vs DMSO"
unit = "%"
measurement = 105

[[record]]
compound = "N#Cc1cc([N+](=O)[O-])c(-n2nnc3ccccc32)c([N+](=O)[O-])c1"
property_label = "GFP response vs DMSO"
unit = "%"
measurement = 92.8

[[record]]
compound = "Clc1ccc(C2=NNC(=NCc3ccccc3)SC2)cc1"
property_label = "GFP response vs DMSO"
unit = "%"
measurement = 95.6


----------
Quick reference: GFP response, % of DMSO of the listed items.
procedure.details: modulators of AGP1-GFP expression in yeast TOR pathway, primary screen, cell-based, multiplex flow cytometry, S. cerevisiae (AID 1887);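 further: AGP1-GFP fusion strain of S. cerevisiae within a five-strain barcoded multiplex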
cond: 3 h, at 10 µM, active compounds read high
Results filed as inconclusive are left out.
property.label: GFP response, % of DMSO (%)

[[record]]
molecule = "COc1ccc2nc(NC(=O)Nc3ccccc3)sc2c1"
measurement = 96

[[record]]
molecule = "COC(=O)c1cc(=O)c2ccc(OC)cc2o1"
measurement = 90.9

[[record]]
molecule = "CC(C)Cc1ccc(C(C)C(=O)Nc2ccc(O)cc2)cc1 (configuration not stated)"
measurement = 99.7

[[record]]
molecule = "CC1CCCc2sc3ncn(N)c(=N)c3c21 (configuration not stated)"
measurement = 87.1

[[record]]
molecule = "CN1CCC(OC(c2ccccc2)c2ccccc2)CC1"
measurement = 104

[[record]]
molecule = "CCOc1cc2oc(=O)c3c(c2cc1Cl)CCC3"
measurement = 107

[[record]]
molecule = "CC(C(=O)O)c1ccc(N2Cc3ccccc3C2=O)cc1 (configuration not stated)"
measurement = 90.4


----------
procedure.details: yeast V-ATPase proton transport modulators, S. cerevisiae, pHLuorin, HTS validation (AID 504600);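 further: plate controls were DMSO for no effect and reference compound for full effect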
cond: S. cerevisiae pHLuorin cytosolic pH, at 10 µM, active compounds read high
property.label: response (%)

[[record]]
molecule = "Fc1cccc(Cc2noc(CN3CCN(c4cnccn4)CC3)n2)c1"
property_label = "response"
measurement = -3.37

[[record]]
molecule = "CCc1cc(=O)oc2cc(C)c(CN3CCCC(C)C3)c(O)c12 (stereo not drawn)"
property_label = "response"
measurement = -0.18

[[record]]
molecule = "O=C(NC(CO)Cc1ccc([N+](=O)[O-])cc1)C(Cl)Cl (stereo not drawn)"
property_label = "response"
measurement = 0.32

[[record]]
molecule = "C#CCN1C(=O)C(O)(CC(=O)c2ccc(OC)c(OC)c2)c2ccccc21 (stereo not drawn)"
property_label = "response"
measurement = -1.43

[[record]]
molecule = "COC(=O)C1=C(C)NC(C)=C(C(=O)OC)C1c1ccccc1[N+](=O)[O-]"
property_label = "response"
measurement = -7.73

[[record]]
molecule = "CC1COc2c(N3CCN(C)CC3)c(F)cc3c(=O)c(C(=O)O)cn1c23 (stereo not drawn)"
property_label = "response"
measurement = -5.31

[[record]]
molecule = "CCNC(=O)c1sc2cc(C)ccc2c1Cl"
property_label = "response"
measurement = 0.2

[[record]]
molecule = "C=CCNC(=S)N1CCc2c([nH]c3ccccc23)C1C (stereo not drawn)"
property_label = "response"
measurement = 2.11

[[record]]
molecule = "CCOC(=O)c1c(C)oc2cc(Br)c(OC(C)C(=O)OCC)cc12 (stereo not drawn)"
property_label = "response"
measurement = -3.94

[[record]]
molecule = "CS(=O)(=O)Oc1ccc2c(c1)O/C(=C\\C=C\\c1ccccc1)C2=O"
property_label = "response"
measurement = -12.2

[[record]]
molecule = "NC12CC3CC(CC(C3)C1)C2"
property_label = "response"
measurement = 3.04

[[record]]
molecule = "CC(=O)OCC(=O)[C@H]1CC[C@H]2[C@@H]3CC=C4C[C@@H](O)CC[C@]4(C)[C@H]3CC[C@]12C"
property_label = "response"
measurement = 0.3

[[record]]
molecule = "COC(=O)c1[nH]c2ccccc2c1NC(=O)CN1CCN(C/C=C/c2ccccc2)CC1"
property_label = "response"
measurement = 3.35

[[record]]
molecule = "O=C(NNC(=O)c1cccs1)c1ccco1"
property_label = "response"
measurement = 8.92

[[record]]
molecule = "CCOC(=O)c1ccc(N2C(=O)C(CC(N)=O)N(CCc3ccc(OC)c(OC)c3)C2=S)cc1 (stereo not drawn)"
property_label = "response"
measurement = 1.03

[[record]]
molecule = "O=c1cc(-c2ccc3c(c2)OCCO3)oc2ccc(Cl)cc12"
property_label = "response"
measurement = 51.3

[[record]]
molecule = "O=C(COc1ccccc1)N1CCN(c2ccccc2)CC1"
property_label = "response"
measurement = -1.27

[[record]]
molecule = "O=c1n(CCCN2CCN(c3cccc(Cl)c3)CC2)nc2ccccn12"
property_label = "response"
measurement = 1.41

[[record]]
molecule = "COc1cccc2c1C(=O)O/C2=C/c1ccc2c(c1)OCO2"
property_label = "response"
measurement = -7.76

[[record]]
molecule = "CC(=O)c1cn(C)c(=O)[nH]c1=O"
property_label = "response"
measurement = 0.64

[[record]]
molecule = "Cn1cc(CN2CCCC(CO)(Cc3cccc(Cl)c3)C2)cn1 (stereo not drawn)"
property_label = "response"
measurement = -0.03

[[record]]
molecule = "COc1ccc(CNC(=O)C2CCN(C(=O)[C@@H](CC(C)C)NC(=O)OC(C)(C)C)CC2)cc1"
property_label = "response"
measurement = -2.19

[[record]]
molecule = "Cc1cc(C)c2c(CCl)cc(=O)oc2c1"
property_label = "response"
measurement = 63.9

